Experiment description: Inhibition of Staphylococcus aureus FabF assessed as reduced accumulation of acetoacetyl-ACP by FabF/FabH PAGE elongation assay
Observation type: pIC50
# pIC50 is unitless: minus log10 of the molar concentration; print number only

**Query** I'd like to know its pIC50. The compound in question is C=C1C[C@@]23C=CC(=O)[C@@](C)(CCC(=O)Nc4c(O)ccc(C(=O)O)c4O)[C@@H]2C[C@@H]1CC3
**Result** 5.34

====

Experiment description: Toxicity in human RBC assessed as drug level causing hemolysis
Format: cell-based
Run parameters: erythrocyte
Observation type: Activity

• CC(=O)NC[C@H]1CN(c2ccc(N3CCOCC3)c(F)c2)C(=O)O1 = > 67 µg/mL
• C[C@@H]1[C@H](O)[C@@H](C)/C=C/C=C/C=C/C=C/C=C/C=C/C=C/[C@H](O[C@@H]2O[C@H](C)[C@@H](O)[C@H](N)[C@@H]2O)C[C@@H]2O[C@](O)(C[C@@H](O)C[C@@H](O)[C@H](O)CC[C@@H](O)C[C@@H](O)CC(=O)O[C@H]1C)C[C@H](O)[C@H]2C(=O)O = 2 µg/mL
• CC12C[C@@]34C=CC(=O)[C@@](C)(CCC(=O)Nc5c(O)ccc(C(=O)O)c5O)C3[C@H](CC1C4)O2 (stereo not given in full) = > 67 µg/mL
• O=C(N[C@H](CO)[C@H](O)c1ccc([N+](=O)[O-])cc1)C(Cl)Cl = > 64 µg/mL

Could you now look at the following compound, please?
**Query** Give its Activity value. Item: C=C1C[C@@]23C=CC(=O)[C@@](C)(CCC(=O)Nc4c(O)ccc(C(=O)O)c4O)[C@@H]2C[C@@H]1CC3
**Result** > 67 µg/mL
